Assay: Cmax in BALB/c mouse at 50 mg/kg, po compound formulated in PEG300 and administered as single dose by LC-MS/MS analysis
Assay type: ADME, organism-based
Parameters: dose 50 mg/kg, route po
Details: in vivo
observable: Cmax (µM)

a. CNC(=O)c1cc(Oc2ncccc2-c2ccnc(C)c2)cc(OC(F)(F)F)c1
b. CNC(=O)c1cc(Oc2ncccc2-c2ccnc(OC)c2)cc(OC(F)(F)F)c1
Task: Lowest Cmax? choose a or b Reply with the label of the item you choose.
Result: b
(b: 6.9 µM, a: 14.4 µM)

###

Target: UniProt Q96GD4
Assay: Disruption of AURKB localization in human RPE-MYC cells transfected with BCL2 assessed as loss of localization of microtubules at the spindle-midzone by immunofluorescence staining based analysis
Assay type: cell-based
Activity calls are given as the source filed them. The calls are words filed in the database; no cut-off is given here.
observable: Activity

Example results:
structureSmilesString	Activity
COc1cc(NC(C)=O)cc(Oc2ncccc2-c2ccncc2)c1	Active
COc1cc(NC(C)=O)cc(Oc2ncccc2-c2ccnc(OC)c2)c1	Active
CNC(=O)c1cc(Oc2ncccc2-c2ccnc(C)c2)cc(OC(F)(F)F)c1	Active
COc1cc(NC(C)=O)cc(Oc2ncccc2-c2ccnc(C)c2)c1	Active

Next:
Task: Quick one: Activity of CNC(=O)c1cc(OC)cc(Oc2ncccc2-c2ccnc(OC)c2)c1 ?
Result: Active

###

Biological target: UniProt Q96GD4
Experiment: Disruption of AURKB localization in human RPE-MYC transfected with GFP-H2B assessed as minimal effective concentration that induces mitotic arrest, polyploidy, cell death and cell number reduction by MIPS assay
Type: cell-based
The entries below are paired with their reported MEC.
I only need the number, in µM, no unit after it.

Task: Recorded MEC for COc1cc(OC)cc(Oc2ncccc2-c2ccnc(N)n2)c1 with UniProt Q96GD4, please?
Result: 0.37

Task: Recorded MEC for CNC(=O)c1cc(OC)cc(Oc2ncccc2-c2ccnc(OC)c2)c1 with UniProt Q96GD4, please?
Result: 0.03

Task: Recorded MEC for COc1cc(Oc2ncccc2-c2ccncc2)cc(-c2nc(C)no2)c1 with UniProt Q96GD4, please?
Result: 0.42

Task: Recorded MEC for COC(=O)c1cc(OC)cc(Oc2ncccc2-c2ccnc(N)n2)c1 with UniProt Q96GD4, please?
Result: 0.03

Task: Recorded MEC for COc1cc(OC)cc(Oc2ncccc2-c2ccnc(OC)c2)c1 with UniProt Q96GD4, please?
Result: 0.07

Task: Recorded MEC for Nc1cccc(Oc2ncccc2-c2ccnc(N)n2)c1 with UniProt Q96GD4, please?
Result: 20

###

Molecular target: Aurora kinase B (Homo sapiens)
Test: Inhibition of Aurora kinase B in human RPE-MYC cells transfected with BCL2 assessed as inhibition of histone H3 phosphorylation at Ser10 residue at MEC for polyploidy measured after 6 hrs by immunofluorescence staining based analysis
Type: cell-based
Activity calls are given as the source filed them. No cut-off for these calls is given here.
Pick one and only one: T (active), F (inactive)

Worked examples, 4 compounds total:
structureSmilesString	classAssignment
CNC(=O)c1cc(Oc2ncccc2-c2ccnc(C)c2)cc(OC(F)(F)F)c1	F
COc1cc(NC(C)=O)cc(Oc2ncccc2-c2ccnc(OC)c2)c1	T
CNC(=O)c1cc(Oc2ncccc2-c2ccnc(OC)c2)cc(OC(F)(F)F)c1	T
CNC(=O)c1cc(OC)cc(Oc2ncccc2-c2ccnc(OC)c2)c1	F

Task: How was COc1cc(NC(C)=O)cc(Oc2ncccc2-c2ccnc(C)c2)c1 classified in this test?
Result: F

Task: How was COc1cc(NC(C)=O)cc(Oc2ncccc2-c2ccncc2)c1 classified in this test?
Result: F

###

Target: Aurora kinase B (Homo sapiens) (UniProt Q96GD4)
Sequence (Q96GD4 whole entry): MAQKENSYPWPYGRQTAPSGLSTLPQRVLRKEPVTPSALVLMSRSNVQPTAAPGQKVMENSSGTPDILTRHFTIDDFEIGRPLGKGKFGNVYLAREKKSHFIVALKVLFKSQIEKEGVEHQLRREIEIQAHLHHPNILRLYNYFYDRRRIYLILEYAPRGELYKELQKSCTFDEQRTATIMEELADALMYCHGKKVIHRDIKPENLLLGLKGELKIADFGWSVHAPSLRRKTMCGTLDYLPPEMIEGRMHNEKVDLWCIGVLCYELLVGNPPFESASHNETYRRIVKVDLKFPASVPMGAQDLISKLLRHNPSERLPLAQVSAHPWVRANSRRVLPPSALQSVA
Experiment: Disruption of AURKB localization in human RPE-MYC transfected with GFP-H2B assessed as minimal effective concentration that induces mitotic arrest, polyploidy, cell death and cell number reduction by MIPS assay
Type: cell-based
observable: MEC (µM)
I only need the number, in µM, no unit after it.

Example results:
structureSmilesString	assayTarget	resultUnit	MEC
CNC(=O)c1cc(OC)cc(Oc2ncccc2-c2ccncc2)c1	Aurora kinase B (Homo sapiens) (UniProt Q96GD4)	µM	0.47
COc1cc(NC(C)=O)cc(Oc2ncccc2-c2ccncc2)c1	Aurora kinase B (Homo sapiens) (UniProt Q96GD4)	µM	0.11
COc1cc(OC)cc(Oc2ncccc2-c2cccnc2)c1	Aurora kinase B (Homo sapiens) (UniProt Q96GD4)	µM	0.91
COc1cc(NC(C)=O)cc(Oc2ncccc2-c2ccnc(C)c2)c1	Aurora kinase B (Homo sapiens) (UniProt Q96GD4)	µM	0.07
COc1cc(OC)cc(Oc2ncccc2-c2ccncc2)c1	Aurora kinase B (Homo sapiens) (UniProt Q96GD4)	µM	0.14

Task: Quick one: MEC of COc1cccc(Oc2ncccc2-c2ccnc(N)n2)c1 ?
Result: 1.5

Task: Quick one: MEC of COc1cc(OC)cc(Oc2ncccc2-c2ccccc2)c1 ?
Result: 2.08

Task: Quick one: MEC of COC(=O)c1cccc(Oc2ncccc2-c2ccnc(N)n2)c1 ?
Result: 0.85

Task: Quick one: MEC of CNC(=O)c1cc(Oc2ncccc2-c2ccnc(C)c2)cc(OC(F)(F)F)c1 ?
Result: 0.12

###

The entries below are paired with their reported MEC.
Molecular target: Aurora kinase B (Homo sapiens)
Assay: Disruption of AURKB localization in human RPE-MYC transfected with GFP-H2B assessed as minimal effective concentration that induces mitotic arrest, polyploidy, cell death and cell number reduction by MIPS assay
Assay type: cell-based
I only need the number, in µM, no unit after it.

structureSmilesString	resultUnit	observedValue
COc1cc(OC)cc(Oc2ncccc2-c2cccc(N)n2)c1	µM	0.96
CNC(=O)c1cc(Oc2ncccc2-c2ccnc(OC)c2)cc(OC(F)(F)F)c1	µM	0.02
CNC(=O)c1cc(OC)cc(Oc2ncccc2-c2ccnc(C)c2)c1	µM	0.12
COc1cc(NC(C)=O)cc(Oc2ncccc2-c2ccnc(OC)c2)c1	µM	0.03

Task: Recorded MEC for COc1cc(Oc2ncccc2-c2ccncc2)cc(C(=O)N(C)C)c1 with Aurora kinase B (Homo sapiens), please?
Result: 2.08

Task: Recorded MEC for COc1cc(OC)cc(Oc2ncccc2-c2ccnc(C)c2)c1 with Aurora kinase B (Homo sapiens), please?
Result: 0.08

Task: Recorded MEC for COc1cc(OC)cc(Oc2ncccc2-c2ccnc(C)n2)c1 with Aurora kinase B (Homo sapiens), please?
Result: 1.29

Task: Recorded MEC for CNC(=O)c1cc(Oc2ncccc2-c2ccncc2)cc(OC(F)(F)F)c1 with Aurora kinase B (Homo sapiens), please?
Result: 0.16

Task: Recorded MEC for Nc1ccc(Oc2ncccc2-c2ccnc(N)n2)cc1 with Aurora kinase B (Homo sapiens), please?
Result: 5

Task: Recorded MEC for COc1cc(OC)cc(Oc2ncccc2-c2ccnc(N)c2)c1 with Aurora kinase B (Homo sapiens), please?
Result: 0.28

Task: Recorded MEC for COC(=O)c1cc(OC)cc(Oc2ncccc2-c2ccncc2)c1 with Aurora kinase B (Homo sapiens), please?
Result: 0.02

Task: Recorded MEC for COc1cc(OC)cc(Oc2ncccc2-c2ccncn2)c1 with Aurora kinase B (Homo sapiens), please?
Result: 0.75

###

Biological target: Aurora kinase B (Homo sapiens) (UniProt Q96GD4)
Assay: Disruption of AURKB localization in human RPE-MYC transfected with GFP-H2B assessed as minimal effective concentration that induces mitotic arrest, polyploidy, cell death and cell number reduction by MIPS assay
Assay type: cell-based
observable: MEC

Example results:
structureSmilesString	MEC
COC(=O)c1ccc(Oc2ncccc2-c2ccnc(N)n2)cc1	> 20 µM
COc1ccc(Oc2ncccc2-c2ccnc(N)n2)cc1	> 20 µM

Next:
Task: Quick one: MEC of Nc1nccc(-c2cccnc2Oc2ccccc2)n1 ?
Result: > 20 µM
